Just for reference, ChEMBL document CHEMBL1201862 is where these values come from.

Tested on: MDA-MB-435
Assay: NCI tumour cell line growth inhibition, 48 h
Activity calls are given as the source filed them. Rule as the data show it: active = GI50 up to about 1.1 µM and inactive = higher.
Outcome codes: active, inactive

{"compound": "Cc1ccc2c(O)cc(-c3sccc3C)nc2n1", "studyTarget": "MDA-MB-435", "classification": "active"}
{"compound": "O=C1CC2(CCC(O)(c3cccc4ccccc34)C(C(=O)c3cccc4ccccc34)C2)C(=O)c2ccccc2N1 (stereo unspecified)", "studyTarget": "MDA-MB-435", "classification": "inactive"}
{"compound": "N#Cc1nnn(-c2ccc(Br)cc2)c1O", "studyTarget": "MDA-MB-435", "classification": "inactive"}
{"compound": "O=C1c2ccccc2-c2nnc(-c3ccccc3)cc21", "studyTarget": "MDA-MB-435", "classification": "inactive"}
{"compound": "O=C1O/C(=C/c2ccccc2)C(c2ccccc2)=C1O", "studyTarget": "MDA-MB-435", "classification": "inactive"}
{"compound": "O=S(=O)(O)c1ccc2cc(/N=N\\c3cc(S(=O)(=O)O)c4cccnc4c3O)ccc2c1", "studyTarget": "MDA-MB-435", "classification": "inactive"}
{"compound": "Cc1cc2nc3c(C#N)c4c(c(Nc5ccc(Cl)cc5)n3c2cc1C)CCC4", "studyTarget": "MDA-MB-435", "classification": "inactive"}
{"compound": "CON(C)C(=O)C(Cc1ccccc1)NC(=O)OC(C)(C)C (stereo unspecified)", "studyTarget": "MDA-MB-435", "classification": "inactive"}
{"compound": "Cn1c(=O)c2nc3c(=O)n(C)c(=O)n(CC(N)=O)c3nc2n(C)c1=O", "studyTarget": "MDA-MB-435", "classification": "inactive"}
{"compound": "CC(C)CC1[C@@H](OCc2ccccc2)COS(=O)(=O)N1Cc1ccccc1 (stereo partly specified)", "studyTarget": "MDA-MB-435", "classification": "inactive"}
{"compound": "Oc1nc(-c2ccc3ccccc3c2)nc2ccccc12", "studyTarget": "MDA-MB-435", "classification": "inactive"}
